Overview of recorded kobs /[I] bovine trypsin for various compounds
Biological target: UniProtKB P00760
Test: Inactivation rate of bovine trypsin, incubation method
Assay type: biochemical
Details: Table II; 0.13 μM trypsin, 0.25-42 μM inhibitor, 80 mM Hepes pH 7.5, 1 mM CaCl2, 8% DMSO, 25° C.; NI = no inhibition
Procedure: Inactivation rates of serine proteases by aryl diesters of peptidyl derivatives of α-aminoalkylphosphonates were measured by the incubation method. […] Aliquots (50 μl) were withdrawn at various intervals and the residual enzymatic activity was measured. […] All peptide thioesters hydrolysis rates were measured with the assay mixture containing 4,4'-dithiodipyridine {ε324 =19800 M^-1 cm^-1; Grasetti & Murray, Arch. […] ^a Inhibition constants were measured in 0.1M Hepes, 0.01M CaCl2 […]

# example entries with known answers
CC(C)C(NC(=O)OC(C)(C)C)C(=O)NC(C(=O)NC(c1ccc(C(=N)N)cc1)P(=O)(Oc1ccccc1)Oc1ccccc1)C(C)C (mixture of isomers)	61 ± 5 M⁻¹ s⁻¹
Cl.N=C(N)c1ccc(C(NC(=O)[C@@H]2CCCN2C(=O)OCc2ccccc2)P(=O)(Oc2ccccc2)Oc2ccccc2)cc1 (some centres unmarked)	910 ± 81 M⁻¹ s⁻¹
Cl.N=C(N)c1ccc(C(NC(=O)[C@@H]2CCCN2C(=O)c2ccccc2Oc2ccccc2)P(=O)(Oc2ccccc2)Oc2ccccc2)cc1 (some centres unmarked)	7,760 ± 310 M^-1 s^-1
CC(C)CC(NC(=O)OC(C)(C)C)C(=O)NCC(=O)NC(c1ccc(C(=N)N)cc1)P(=O)(Oc1ccccc1)Oc1ccccc1 (mixture of isomers)	2,960 ± 300 M^-1 s^-1
CC(C)CC(NC(=O)OC(C)(C)C)C(=O)NC(CO)C(=O)NC(c1ccc(C(=N)N)cc1)P(=O)(Oc1ccccc1)Oc1ccccc1 (mixture of isomers)	177 ± 2 M⁻¹ s⁻¹
N=C(N)c1ccc(C(NC(=O)CNC(=O)C(CCC(=O)O)NC(=O)OCc2ccccc2)P(=O)(Oc2ccccc2)Oc2ccccc2)cc1 (mixture of isomers)	70 ± 5 M⁻¹ s⁻¹
CC(C)C(NC(=O)C(Cc1ccccc1)NC(=O)OC(C)(C)C)C(=O)NC(c1ccc(C(=N)N)cc1)P(=O)(Oc1ccccc1)Oc1ccccc1 (mixture of isomers)	30 ± 2 M⁻¹ s⁻¹
Cl.N=C(N)c1ccc(C(NC(=O)c2cccc(Oc3ccccc3)c2)P(=O)(Oc2ccccc2)Oc2ccccc2)cc1 (centres unmarked)	50 ± 2 M⁻¹ s⁻¹

Exam item: # get_value(readout= kobs /[I] bovine trypsin, system= UniProtKB P00760) for CC(C)CC(N)C(=O)NC(C(=O)NC(c1ccc(C(=N)N)cc1)P(=O)(Oc1ccccc1)Oc1ccccc1)C(C)O (mixture of isomers)
Marked response: 24.5 ± 0.0 M⁻¹ s⁻¹

Exam item: Please give the result for CC(NC(=O)OCc1ccccc1)C(=O)NC(C)C(=O)NC(C)C(=O)NC(c1ccc(C(=N)N)cc1)P(=O)(Oc1ccccc1)Oc1ccccc1 (mixture of isomers) too.
Marked response: 1,780 ± 33 M^-1 s^-1

Exam item: Please give the result for N=C(N)c1ccc(C(NC(=O)C(Cc2ccccc2)NC(=O)OCc2ccccc2)P(=O)(Oc2ccccc2)Oc2ccccc2)cc1 (mixture of isomers) too.
Marked response: 17 ± 1 M⁻¹ s⁻¹

Exam item: Please give the result for Cl.N=C(N)c1ccc(C(NC(=O)[C@@H]2CCCN2C(=O)c2cccc(Oc3ccccc3)c2)P(=O)(Oc2ccccc2)Oc2ccccc2)cc1 (some centres unmarked) too.
Marked response: 4,080 ± 32 M^-1 s^-1

###

Overview of recorded kobs /[I] bovine trypsin for various compounds
target: bovine trypsin (Bos taurus, UniProt P00760); test: Inactivation rate of bovine trypsin, incubation method; assay type: biochemical; conditions: Table III; enzyme 0.06-0.5 μM, inhibitor 0.25-42 μM, 9% DMSO, 25° C.; NI = no inhibition
Return type: number; implicit unit M⁻¹ s⁻¹.

Exam item: # get_value(readout= kobs /[I] bovine trypsin, system= bovine trypsin (Bos taurus, UniProt P00760)) for Cl.NCCCCCC(NC(=O)[C@@H]1CCCN1C(=O)c1cccc(Oc2ccccc2)c1)P(=O)(Oc1ccccc1)Oc1ccccc1 (stereo partly drawn)
Marked response: 116

###

target: UniProtKB P12544; assay: Inactivation rate of human granzyme A, incubation method; format: biochemical; settings: Table I; 0.1M Hepes, 0.01M CaCl2 pH 7.5, 25° C., 7.6% DMSO, substrate Z--Arg--SBzl
Endpoint Label: kobsd /[I] human granzyme A (M⁻¹ s⁻¹)
Return type: number; implicit unit M⁻¹ s⁻¹.

Cl.N=C(N)c1ccc(C(NC(=O)c2ccccc2Oc2ccccc2)P(=O)(Oc2ccccc2)Oc2ccccc2)cc1 (stereo not drawn)	540
N=C(N)c1ccc(C(NC(=O)Oc2cccc3ccccc23)P(=O)(Oc2ccccc2)Oc2ccccc2)cc1 (stereo not drawn)	160

Exam item: For the compound CC(C)C(NC(=O)OCc1ccccc1)C(=O)NC(c1ccc(C(=N)N)cc1)P(=O)(Oc1ccccc1)Oc1ccccc1 (mixture of isomers) , what kobsd /[I] human granzyme A is on record?
Marked response: 6.7

###

molecular target: human granzyme A (Homo sapiens, UniProt P12544); test: Inactivation rate of human granzyme A, incubation method; type: biochemical; settings: Table I; 0.1M Hepes, 0.01M CaCl2 pH 7.5, 25° C., 7.6% DMSO, substrate Z--Arg--SBzl
Sequence (P12544 29-262): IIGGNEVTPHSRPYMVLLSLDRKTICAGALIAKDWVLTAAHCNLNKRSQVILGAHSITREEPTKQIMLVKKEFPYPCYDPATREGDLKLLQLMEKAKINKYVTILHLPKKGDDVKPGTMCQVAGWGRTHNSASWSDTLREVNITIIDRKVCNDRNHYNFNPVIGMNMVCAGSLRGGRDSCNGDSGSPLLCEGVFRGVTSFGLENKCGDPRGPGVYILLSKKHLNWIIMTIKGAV
Overview of recorded kobsd /[I] human granzyme A for various molecules
Return type: number; implicit unit M⁻¹ s⁻¹.

# example entries with known answers
CC(C)CC(NC(=O)OCc1ccccc1)C(=O)NC(c1ccc(C(=N)N)cc1)P(=O)(Oc1ccccc1)Oc1ccccc1 (mixture of isomers) [Cbz--Leu-(4-AmPhGly)^P (OPh)2]	6.3
CC(NC(=O)OCc1ccccc1)C(=O)NC(c1ccc(C(=N)N)cc1)P(=O)(Oc1ccccc1)Oc1ccccc1 (mixture of isomers) [Cbz--Ala-(4-AmPhGly)^P (OPh)2]	1670
CC(NC(=O)OCc1ccccc1)C(=O)NC(C)C(=O)NC(C)C(=O)NC(c1ccc(C(=N)N)cc1)P(=O)(Oc1ccccc1)Oc1ccccc1 (mixture of isomers) [Cbz--Ala--Ala--Ala-(4-AmPhGly)^P (OPh)2]	730

Exam item: For the molecule C[C@H](NC(=O)[C@H](CC(=O)OC(C)(C)C)NC(=O)OCc1ccccc1)C(=O)NC(c1ccc(C(=N)N)cc1)P(=O)(Oc1ccccc1)Oc1ccccc1 (some centres unmarked) , what kobsd /[I] human granzyme A is on record?
Marked response: 280

Exam item: Please give the result for N=C(N)c1ccc(C(NC(=O)CCC(=O)O)P(=O)(Oc2ccccc2)Oc2ccccc2)cc1 (centres unmarked) [Suc-(4-AmPhGly)^P (OPh)2] too.
Marked response: 857

###

target: rat granzyme K (Rattus norvegicus, UniProt P49864); test: Inactivation rate of rat granzyme K, incubation method; format: biochemical; settings: Table I; 0.1M Hepes, 0.01M CaCl2 pH 7.5, 25° C., 7.1% DMSO, substrate Z--Arg--SBzl; NI = no inhibition after 25 min of incubation
Sequence (P49864 26-258): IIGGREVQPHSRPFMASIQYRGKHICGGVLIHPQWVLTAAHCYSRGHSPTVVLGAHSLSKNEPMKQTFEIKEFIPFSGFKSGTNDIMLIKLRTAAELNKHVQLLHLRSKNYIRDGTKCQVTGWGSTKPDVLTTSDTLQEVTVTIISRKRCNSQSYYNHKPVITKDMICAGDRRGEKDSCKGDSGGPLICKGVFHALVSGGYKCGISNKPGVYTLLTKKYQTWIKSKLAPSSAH
Overview of recorded kobsd /[I] rat granzyme K for various compounds
Return type: number; implicit unit M⁻¹ s⁻¹.

# example entries with known answers
N=C(N)c1ccc(C(NC(=O)[C@@H]2CCCN2C(=O)CC(c2ccccc2)c2ccccc2)P(=O)(Oc2ccccc2)Oc2ccccc2)cc1 (stereo partly drawn)	1830
CC(C)(C)OC(=O)N[C@H](Cc1ccccc1)C(=O)N1CCC[C@H]1C(=O)NC(c1ccc(C(=N)N)cc1)P(=O)(Oc1ccccc1)Oc1ccccc1.Cl (stereo partly drawn)	56
N=C(N)c1ccc(C(NC(=O)C(Cc2ccccc2)NC(=O)OCc2ccccc2)P(=O)(Oc2ccccc2)Oc2ccccc2)cc1 (mixture of isomers)	13
C[C@H](NC(=O)OCc1ccccc1)C(=O)N[C@@H](C)C(=O)NC(c1ccc(C(=N)N)cc1)P(=O)(Oc1ccccc1)Oc1ccccc1 (stereo partly drawn)	5

Exam item: # get_value(readout= kobsd /[I] rat granzyme K, system= rat granzyme K (Rattus norvegicus, UniProt P49864)) for N=C(N)c1ccc(C(NC(=O)C2CCCN2C(=O)CCc2ccccc2)P(=O)(Oc2ccccc2)Oc2ccccc2)cc1 (stereo not drawn)
Marked response: 50

Exam item: Please give the result for Cl.N=C(N)c1ccc(C(NC(=O)[C@@H]2CCCN2C(=O)OCc2ccccc2)P(=O)(Oc2ccccc2)Oc2ccccc2)cc1 (stereo partly drawn) too.
Marked response: 34

Exam item: Please give the result for Cl.N=C(N)c1ccc(C(NC(=O)/C=C/c2ccccc2)P(=O)(Oc2ccccc2)Oc2ccccc2)cc1 (stereo not drawn) [trans-Cinnamoyl-(4-AmPhGly)^P (OPh)2] too.
Marked response: 3

Exam item: Please give the result for Cl.N=C(N)c1ccc(C(NC(=O)C=Cc2cccs2)P(=O)(Oc2ccccc2)Oc2ccccc2)cc1 (stereo not drawn) too.
Marked response: 4

###

Molecular target: bovine trypsin (Bos taurus, UniProt P00760)
Sequence (P00760 24-246): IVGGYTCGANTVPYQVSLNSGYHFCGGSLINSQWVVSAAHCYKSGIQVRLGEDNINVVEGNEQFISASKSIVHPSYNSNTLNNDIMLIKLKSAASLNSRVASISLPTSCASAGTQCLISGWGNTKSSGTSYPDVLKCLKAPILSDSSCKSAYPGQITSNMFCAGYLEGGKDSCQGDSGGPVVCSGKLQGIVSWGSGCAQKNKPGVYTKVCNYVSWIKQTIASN
Experiment: Inactivation rate of bovine trypsin, incubation method
Type: biochemical
Conditions: Table II; 0.13 μM trypsin, 0.25-42 μM inhibitor, 80 mM Hepes pH 7.5, 1 mM CaCl2, 8% DMSO, 25° C.; NI = no inhibition
Procedure: Inactivation rates of serine proteases by aryl diesters of peptidyl derivatives of α-aminoalkylphosphonates were measured by the incubation method. […] Aliquots (50 μl) were withdrawn at various intervals and the residual enzymatic activity was measured. […] All peptide thioesters hydrolysis rates were measured with the assay mixture containing 4,4'-dithiodipyridine {ε324 =19800 M^-1 cm^-1; Grasetti & Murray, Arch. […] ^a Inhibition constants were measured in 0.1M Hepes, 0.01M CaCl2 […]
Tick 1 if kobs /[I] bovine trypsin is 200 M⁻¹ s⁻¹ or greater. Tick 0 if kobs /[I] bovine trypsin is less than 200 M⁻¹ s⁻¹.

// known answers, use as guide
N=C(N)c1ccc(C(NC(=O)CCC(=O)O)P(=O)(Oc2ccccc2)Oc2ccccc2)cc1 (centres unmarked)	0
Cl.N=C(N)c1ccc(C(NC(=O)C=Cc2ccco2)P(=O)(Oc2ccccc2)Oc2ccccc2)cc1 (centres unmarked)	1
C[C@@H](O)[C@H](NC(=O)OCc1ccccc1)C(=O)NC(c1ccc(C(=N)N)cc1)P(=O)(Oc1ccccc1)Oc1ccccc1 (some centres unmarked)	0

Exam item: Reported kobs /[I] bovine trypsin reaches at least 200 M⁻¹ s⁻¹ for CC(C)CC(NC(=O)OC(C)(C)C)C(=O)NC(CC(=O)OC(C)(C)C)C(=O)N1CCCC1C(=O)NC(c1ccc(C(=N)N)cc1)P(=O)(Oc1ccccc1)Oc1ccccc1 (mixture of isomers) ?
Marked response: 1

Exam item: Please give the result for Cl.N=C(N)c1ccc(C(NC(=O)OCc2ccccc2)P(=O)(O)Oc2ccccc2)cc1 (centres unmarked) too.
Marked response: 0

Exam item: Please give the result for C[C@H](NC(=O)[C@@H]1CCCN1C(=O)OCc1ccccc1)C(=O)NC(c1ccc(C(=N)N)cc1)P(=O)(Oc1ccccc1)Oc1ccccc1 (some centres unmarked) too.
Marked response: 1
